Where do the numbers come from? From patent US8901118B2.

# assay.target: BCR-FMS BaF3 cells (Homo sapiens, UniProt P07333)
# Construct: fused on or other part: P11274 (Breakpoint cluster region protein)
# Sequence (P07333 582-910): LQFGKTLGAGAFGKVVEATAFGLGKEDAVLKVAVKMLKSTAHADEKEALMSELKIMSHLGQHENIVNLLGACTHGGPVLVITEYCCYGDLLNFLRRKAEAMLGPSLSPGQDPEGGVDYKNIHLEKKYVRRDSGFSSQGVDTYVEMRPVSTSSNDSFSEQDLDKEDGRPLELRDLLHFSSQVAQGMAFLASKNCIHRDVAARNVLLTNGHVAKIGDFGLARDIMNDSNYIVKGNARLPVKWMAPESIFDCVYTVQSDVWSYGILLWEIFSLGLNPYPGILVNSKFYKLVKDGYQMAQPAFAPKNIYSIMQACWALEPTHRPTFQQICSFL
# protocol.details: BaF3 BCR-FMS cell proliferation assay (ATPlite)
# experimental.parameters: read-out: Inhibition of Cell Proliferation IC50, BCR/BaF3 Fms
pIC50: −log10 of the molar value.
readout.label: pIC50

Cc1cnc2[nH]cc(Cc3cnc(Nc4cc(C5CC5)n[nH]4)nc3)c2c1    > 6.00
CC1CCC(Nc2ncc(Cc3c[nH]c4ncc(Cl)cc34)cn2)CC1 (centres unmarked)    > 6.00
Fc1ccccc1Nc1ncc(Cc2c[nH]c3ncc(Cl)cc23)cn1    > 7.00
Fc1nc(Nc2ccc(C3CC3)nc2)ccc1Cc1c[nH]c2ncnc(C3CC3)c12    > 8.00
O=C(c1ccc(NC2CCC(F)(F)CC2)nc1)c1c[nH]c2ncnc(NC3CC3)c12    > 7.00
COc1ccc(Nc2ccc(C(=O)c3c[nH]c4ncnc(NC5CC5)c34)c(F)n2)cn1    > 8.00
COc1ncnc2[nH]cc(Cc3ccc(Nc4ccc(Cl)nc4)nc3F)c12    > 7.00
COc1ccccc1Nc1ncc(Cc2c[nH]c3ncc(Cl)cc23)cn1    > 6.00
Nc1ncnc2[nH]cc(C(=O)c3ccc(NC4CCC(F)(F)CC4)nc3Cl)c12    > 7.00
CC(C)(O)CNc1ncnc2[nH]cc(C(=O)c3ccc(Nc4ccc(C5CC5)nc4)nc3F)c12    > 6.00

Look up pIC50 for the entries below, preserving their order.
1. COc1ccc(Nc2ncc(Cc3c[nH]c4ncc(C)cc34)cn2)cn1
2. CCOc1ncnc2[nH]cc(Cc3ccc(Nc4cccnc4)nc3F)c12
3. COc1cncc(Nc2ccc(C(=O)c3c[nH]c4ncnc(NC5CCCCC5)c34)c(F)n2)c1
4. FC1(F)CCC(Nc2ncc(Cc3c[nH]c4ncc(Cl)cc34)cn2)CC1

Given back:
["> 8.00", "> 6.00", "> 7.00", "> 7.00"]
